Would you mind telling me the reported combination Emax of each entry?
- Test system: MHH-CALL-2 (B-Lymphoblastic Leukemia)
- measurement-description: combination Emax (second highest fraction inhibited in the dose matrix, 72 h); higher = more inhibition; extreme values may be limits of the assay

Noted combination Emax for Cn1cnc2c(F)c(Nc3ccc(Br)cc3Cl)c(C(=O)NOCCO)cc21 [Selumetinib] + CCN(CCO)CCCOc1ccc2c(Nc3cc(CC(=O)Nc4cccc(F)c4)[nH]n3)ncnc2c1 [AZD2811] (first compound max 10 µM, 7x7, partner max 1 µM) , tested on MHH-CALL-2 (B-Lymphoblastic Leukemia): 0.888

Lab note: compound Cc1c2c(nn1C)CSCc1cc(n(C)n1)CSc1cc(c3ccccc3c1)OCCCc1c(C(=O)O)n(C)c3c-2c(Cl)ccc13 [AZD5991] + CC1(C)CCC(CN2CCN(c3ccc(C(=O)NS(=O)(=O)c4ccc(NCC5CCOCC5)c([N+](=O)[O-])c4)c(Oc4cnc5[nH]ccc5c4)c3)CC2)=C(c2ccc(Cl)cc2)C1 [Venetoclax] (first compound max 1 µM, 7x7, partner max 1 µM) tested on MHH-CALL-2 (B-Lymphoblastic Leukemia); recorded combination Emax was 0.983

combination Emax on MHH-CALL-2 (B-Lymphoblastic Leukemia) for Cc1c2c(nn1C)CSCc1cc(n(C)n1)CSc1cc(c3ccccc3c1)OCCCc1c(C(=O)O)n(C)c3c-2c(Cl)ccc13 [AZD5991] + C[C@@H]1COCCN1C2=NC(=NC(=C2)C3(CC3)[S@](=N)(=O)C)C4=C5C=CNC5=NC=C4 [AZD6738] (first compound max 1 µM, 7x7, partner max 10 µM) is 1

====

Assign combination Emax to each entry below.
- System: BE2-M17 (Neuroblastoma)
- measurement-description: combination Emax (second highest fraction inhibited in the dose matrix, 72 h); higher = more inhibition; extreme values may be limits of the assay
Keep it simple and answer with nothing but the number.

The value of combination Emax measured for the compound CN(CCO)CC[C@H](CSc1ccccc1)Nc1ccc(S(=O)(=O)NC(=O)c2ccc(N3CCC([C@@H](O)c4ccccc4-c4ccc(Cl)cc4)CC3)cc2)cc1S(=O)(=O)C(F)(F)F [AZD4320] + C=CCn1c(=O)c2cnc(Nc3ccc(N4CCN(C)CC4)cc3)nc2n1-c1cccc(C(C)(C)O)n1 [AZD1775] (first compound max 1 µM, partner max 1 µM) turned out to be 0.92

The compound NC1(C(=O)N[C@@H](CCO)c2ccc(Cl)cc2)CCN(c2ncnc3[nH]ccc23)CC1 [Capivasertib] + CCN(CCO)CCCOc1ccc2c(Nc3cc(CC(=O)Nc4cccc(F)c4)[nH]n3)ncnc2c1 [AZD2811] (first compound max 10 µM, 7x7, partner max 1 µM) showed combination Emax equal to 0.493

Notebook: CC(=O)c1c(C)c2cnc(Nc3ccc(N4CCNCC4)cn3)nc2n(C2CCCC2)c1=O [Palbociclib] + Cc1c2c(nn1C)CSCc1cc(n(C)n1)CSc1cc(c3ccccc3c1)OCCCc1c(C(=O)O)n(C)c3c-2c(Cl)ccc13 [AZD5991] (first compound max 10 µM, 7x7, partner max 1 µM) , combination Emax read as 0.409

// recorded combination Emax for CC1(C)CCC(CN2CCN(c3ccc(C(=O)NS(=O)(=O)c4ccc(NCC5CCOCC5)c([N+](=O)[O-])c4)c(Oc4cnc5[nH]ccc5c4)c3)CC2)=C(c2ccc(Cl)cc2)C1 [Venetoclax] + C[C@@H](Nc1cc(F)cc(F)c1)c1cc(C(=O)N(C)C)cc2c(=O)cc(N3CCOCC3)oc12 [AZD8186] (first compound max 1 µM, 7x7, partner max 3 µM) : 0.276

In plain terms, CC(=O)c1c(C)c2cnc(Nc3ccc(N4CCNCC4)cn3)nc2n(C2CCCC2)c1=O [Palbociclib] + Cn1cnc2c(F)c(Nc3ccc(Br)cc3Cl)c(C(=O)NOCCO)cc21 [Selumetinib] (first compound max 10 µM, 7x7, partner max 10 µM) has a documented combination Emax of 0.606

The value of combination Emax measured for the compound CN(CCO)CC[C@H](CSc1ccccc1)Nc1ccc(S(=O)(=O)NC(=O)c2ccc(N3CCC([C@@H](O)c4ccccc4-c4ccc(Cl)cc4)CC3)cc2)cc1S(=O)(=O)C(F)(F)F [AZD4320] + Cc1cc2ncnn2cc1Nc1ncc2c(n1)n(C1CCOCC1)c(=O)n2C [AZD7648] (first compound max 1 µM, 7x7, partner max 10 µM) turned out to be 0.369

====

- Tested on: HuCCT1 (Biliary Tract Carcinoma)
- measurement-description: combination Emax (second highest fraction inhibited in the dose matrix, 72 h); higher = more inhibition; extreme values may be limits of the assay
readout-label: combination Emax

According to the records, this molecule C=CCn1c(=O)c2cnc(Nc3ccc(N4CCN(C)CC4)cc3)nc2n1-c1cccc(C(C)(C)O)n1 [AZD1775] + Nc1ccn([C@@H]2O[C@H](CO)[C@@H](O)C2(F)F)c(=O)n1 [Gemcitabine] (first compound max 1 µM, partner max 0.3 µM) displays combination Emax of 0.805

# combination Emax of C[C@@H](Oc1cc(-c2cnn(C3CCNCC3)c2)cnc1N)c1c(Cl)ccc(F)c1Cl [Crizotinib] + CC1=C(C(=CC=C1)Cl)NC(=O)C2=CN=C(S2)NC3=CC(=NC(=N3)C)N4CCN(CC4)CCO [Dasatinib] (first compound max 10 µM, 7x7, partner max 2 µM) = 0.82

Note to self: combination Emax recorded for O=C(c1cc(Cc2n[nH]c(=O)c3ccccc23)ccc1F)N1CCN(C(=O)C2CC2)CC1 [Olaparib] + CN(CC[C@H](CSC1=CC=CC=C1)NC2=C(C=C(C=C2)S(=O)(=O)NC(=O)C3=CC=C(C=C3)N4CCC(CC4)[C@H](C5=CC=CC=C5C6=CC=C(C=C6)Cl)O)S(=O)(=O)C(F)(F)F)CCO [AZD4320] (first compound max 10 µM, 7x7, partner max 1 µM) was 0.193

Reported combination Emax for COc1cccc2c1C(=O)c1c(O)c3c(c(O)c1C2=O)C[C@@](O)(C(=O)CO)C[C@@H]3O[C@H]1C[C@H](N)[C@H](O)[C@H](C)O1 [Doxorubicin] + Cc1cc2ncnn2cc1Nc1ncc2c(n1)n(C1CCOCC1)c(=O)n2C [AZD7648] (first compound max 1 µM, 7x7, partner max 10 µM) was 0.746

Record CN(CCO)CC[C@H](CSc1ccccc1)Nc1ccc(S(=O)(=O)NC(=O)c2ccc(N3CCC([C@@H](O)c4ccccc4-c4ccc(Cl)cc4)CC3)cc2)cc1S(=O)(=O)C(F)(F)F [AZD4320] + C=CCn1c(=O)c2cnc(Nc3ccc(N4CCN(C)CC4)cc3)nc2n1-c1cccc(C(C)(C)O)n1 [AZD1775] (first compound max 1 µM, partner max 1 µM) , field combination Emax: 0.807

Documented combination Emax of CN(CCO)CC[C@H](CSc1ccccc1)Nc1ccc(S(=O)(=O)NC(=O)c2ccc(N3CCC([C@@H](O)c4ccccc4-c4ccc(Cl)cc4)CC3)cc2)cc1S(=O)(=O)C(F)(F)F [AZD4320] + CCN(CCO)CCCOc1ccc2c(Nc3cc(CC(=O)Nc4cccc(F)c4)[nH]n3)ncnc2c1 [AZD2811] (first compound max 1 µM, 7x7, partner max 1 µM) : 0.136

====

Field: combination Emax. Provide a value for each of the molecules that follow.
- Test system: LS-123 (Colorectal Carcinoma)
- measurement-description: combination Emax (second highest fraction inhibited in the dose matrix, 72 h); higher = more inhibition; extreme values may be limits of the assay

The recorded combination Emax for CS(=O)(=O)CCNCc1ccc(-c2ccc3ncnc(Nc4ccc(OCc5cccc(F)c5)c(Cl)c4)c3c2)o1 [Lapatinib] + Cn1cnc2c(F)c(Nc3ccc(Br)cc3Cl)c(C(=O)NOCCO)cc21 [Selumetinib] (first compound max 10 µM, 7x7, partner max 10 µM) is 0.677

The recorded combination Emax for COc1nnc2ccc(N3CCC(c4ccc(OCCN5CCN(C)C(=O)[C@H]5C)cc4)CC3)nn12 [AZD5153] + Cc1c2c(nn1C)CSCc1cc(n(C)n1)CSc1cc(c3ccccc3c1)OCCCc1c(C(=O)O)n(C)c3c-2c(Cl)ccc13 [AZD5991] (first compound max 1 µM, 7x7, partner max 1 µM) is 0.406

combination Emax measured on CN(C)CCCOc1ccc(-c2ccc3ncc4c(c3c2)n(C2CCOCC2)c(=O)n4C)cn1 [AZD0156] + C=CCn1c(=O)c2cnc(Nc3ccc(N4CCN(C)CC4)cc3)nc2n1-c1cccc(C(C)(C)O)n1 [AZD1775] (first compound max 1 µM, partner max 1 µM) = 0.609

====

- Tested on: BE-13 (T-Lymphoblastic Leukemia)
- measurement-description: combination Emax (second highest fraction inhibited in the dose matrix, 72 h); higher = more inhibition; extreme values may be limits of the assay
readout-label: combination Emax
Output: the number by itself.

// combination Emax lookup, compound = Cc1nc(-c2cn3c(n2)-c2ccc(-c4cnn(C(C)(C)C(N)=O)c4)cc2OCC3)n(C(C)C)n1 [Taselisib] + O=C(Nc1ccc2[nH]nc(-c3ccncc3)c2c1)[C@@H]1CCN(CC(=O)N2CCN(c3ccc(-c4ncccn4)cc3)CC2)C1 [SCH772984] (first compound max 10 µM, 7x7, partner max 5 µM) , result: 0.373

Kindly note the recorded combination Emax for COc1cccc(OCCCN)c1-c1cc(Nc2cnc(C#N)cn2)n[nH]1 [Prexasertib] + C=CCn1c(=O)c2cnc(Nc3ccc(N4CCN(C)CC4)cc3)nc2n1-c1cccc(C(C)(C)O)n1 [AZD1775] (first compound max 1 µM, partner max 1 µM) , which is 1

Lookup result for CN(C)CCCOc1ccc(-c2ccc3ncc4c(c3c2)n(C2CCOCC2)c(=O)n4C)cn1 [AZD0156] + CCN(CCO)CCCOc1ccc2c(Nc3cc(CC(=O)Nc4cccc(F)c4)[nH]n3)ncnc2c1 [AZD2811] (first compound max 1 µM, 7x7, partner max 1 µM) ; measured combination Emax: 0.674

The value of combination Emax measured for the compound CN(CCO)CC[C@H](CSc1ccccc1)Nc1ccc(S(=O)(=O)NC(=O)c2ccc(N3CCC([C@@H](O)c4ccccc4-c4ccc(Cl)cc4)CC3)cc2)cc1S(=O)(=O)C(F)(F)F [AZD4320] + C1CN(CCC1(C(=O)N[C@@H](CCO)C2=CC=C(C=C2)Cl)N)C3=NC=NC4=C3C=CN4 [Capivasertib] (first compound max 1 µM, 7x7, partner max 3 µM) turned out to be 0.994

The compound CC1(C)CCC(CN2CCN(c3ccc(C(=O)NS(=O)(=O)c4ccc(NCC5CCOCC5)c([N+](=O)[O-])c4)c(Oc4cnc5[nH]ccc5c4)c3)CC2)=C(c2ccc(Cl)cc2)C1 [Venetoclax] + CCN(CCO)CCCOc1ccc2c(Nc3cc(CC(=O)Nc4cccc(F)c4)[nH]n3)ncnc2c1 [AZD2811] (first compound max 1 µM, 7x7, partner max 1 µM) showed combination Emax equal to 0.881

Recorded combination Emax (compound CC(=O)c1c(C)c2cnc(Nc3ccc(N4CCNCC4)cn3)nc2n(C2CCCC2)c1=O [Palbociclib] + CC1(C)CCC(CN2CCN(c3ccc(C(=O)NS(=O)(=O)c4ccc(NCC5CCOCC5)c([N+](=O)[O-])c4)c(Oc4cnc5[nH]ccc5c4)c3)CC2)=C(c2ccc(Cl)cc2)C1 [Venetoclax] (first compound max 10 µM, 7x7, partner max 1 µM) ): 0.588

Quick note, combination Emax for O=C(c1cc(Cc2n[nH]c(=O)c3ccccc23)ccc1F)N1CCN(C(=O)C2CC2)CC1 [Olaparib] + Cc1c2c(nn1C)CSCc1cc(n(C)n1)CSc1cc(c3ccccc3c1)OCCCc1c(C(=O)O)n(C)c3c-2c(Cl)ccc13 [AZD5991] (first compound max 10 µM, 7x7, partner max 1 µM) landed at 0.498

Sure, the documented combination Emax for Cc1nc(Nc2ncc(C(=O)Nc3c(C)cccc3Cl)s2)cc(N2CCN(CCO)CC2)n1 [Dasatinib] + CC(=O)Nc1cccc(-n2c(=O)n(C3CC3)c(=O)c3c(Nc4ccc(I)cc4F)n(C)c(=O)c(C)c32)c1 [Trametinib] (first compound max 2 µM, 7x7, partner max 1 µM) is 0.607

Lab book: combination Emax of O=C(c1cc(Cc2n[nH]c(=O)c3ccccc23)ccc1F)N1CCN(C(=O)C2CC2)CC1 [Olaparib] + COc1nnc2ccc(N3CCC(c4ccc(OCCN5CCN(C)C(=O)[C@H]5C)cc4)CC3)nn12 [AZD5153] (first compound max 10 µM, 7x7, partner max 1 µM) noted as 0.648

According to the records, this compound CN(C)CCCOc1ccc(-c2ccc3ncc4c(c3c2)n(C2CCOCC2)c(=O)n4C)cn1 [AZD0156] + C=CCn1c(=O)c2cnc(Nc3ccc(N4CCN(C)CC4)cc3)nc2n1-c1cccc(C(C)(C)O)n1 [AZD1775] (first compound max 1 µM, partner max 1 µM) displays combination Emax of 0.964

Value of measured combination Emax for the entry Cc1c2c(nn1C)CSCc1cc(n(C)n1)CSc1cc(c3ccccc3c1)OCCCc1c(C(=O)O)n(C)c3c-2c(Cl)ccc13 [AZD5991] + CC(=O)O[C@H]1C(=O)[C@@]2(C)[C@H]([C@H](OC(=O)c3ccccc3)[C@]3(O)C[C@H](OC(=O)[C@H](O)[C@@H](NC(=O)c4ccccc4)c4ccccc4)C(C)=C1C3(C)C)[C@]1(OC(C)=O)CO[C@@H]1C[C@@H]2O [Paclitaxel] (first compound max 1 µM, 7x7, partner max 3 µM) : 0.852

Notebook: Cc1c2c(nn1C)CSCc1cc(n(C)n1)CSc1cc(c3ccccc3c1)OCCCc1c(C(=O)O)n(C)c3c-2c(Cl)ccc13 [AZD5991] + CS(=O)(=O)CCNCc1ccc(-c2ccc3ncnc(Nc4ccc(OCc5cccc(F)c5)c(Cl)c4)c3c2)o1 [Lapatinib] (first compound max 1 µM, 7x7, partner max 10 µM) , combination Emax read as 0.936
